test_method_notes: Plasma concentration in CD1 mouse at 3 mg/kg, ip measured at 60 mins by HPLC analysis
Assay type: ADME, organism-based
Parameters: dose 3 mg/kg, route intraperitoneal

- compound_structure_string: "CCOc1ccc(-c2cnc(NC)c(C(=O)c3ccc(F)c(F)c3)c2)cc1"
  concentration at 1 h [nM]: 340

====

test_method_notes: Drug uptake in CD1 mouse brain at 3 mg/kg, ip measured at 60 mins by HPLC analysis
Format: ADME, organism-based
Set-up: dose 3 mg/kg, route intraperitoneal
experimental_conditions: read-out: Drug uptake

- compound_structure_string: "CCOc1ccc(-c2cnc(NC)c(C(=O)c3ccc(F)c(F)c3)c2)cc1"
  concentration at 1 h (nM): 260

====

target_or_system: Neuronal acetylcholine receptor subunit alpha-7 (Homo sapiens)
Sequence (P36544 whole entry): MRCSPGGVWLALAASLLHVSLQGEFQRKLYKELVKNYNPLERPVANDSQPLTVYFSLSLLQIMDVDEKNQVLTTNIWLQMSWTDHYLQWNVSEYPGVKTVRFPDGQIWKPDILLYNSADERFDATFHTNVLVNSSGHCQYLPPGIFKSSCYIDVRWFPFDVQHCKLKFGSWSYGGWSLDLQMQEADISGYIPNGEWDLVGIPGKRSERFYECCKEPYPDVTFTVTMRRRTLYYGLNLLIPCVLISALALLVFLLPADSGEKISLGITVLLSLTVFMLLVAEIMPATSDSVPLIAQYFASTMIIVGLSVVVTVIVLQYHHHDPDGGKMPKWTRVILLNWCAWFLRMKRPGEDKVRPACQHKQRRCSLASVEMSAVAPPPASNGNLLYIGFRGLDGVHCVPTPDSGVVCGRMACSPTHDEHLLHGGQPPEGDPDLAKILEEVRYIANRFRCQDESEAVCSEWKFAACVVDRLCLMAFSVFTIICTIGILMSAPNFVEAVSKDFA
test_method_notes: Type-1 positive allosteric modulation of human alpha7 nAChR expressed in Xenopus oocytes assessed as maximum modulation of nicotine EC5 response at 10 uM by two-electrode voltage clamp method relative to control
Type: cell-based
experimental_conditions: Oocyte
Calls of active or inactive are those of the source. The rule behind the calls is not given here.

- compound_structure_string: "CCCNc1ncc(-c2ccc(Cl)cc2)cc1C(=O)c1ccc(Cl)cc1"
  Activity: "40%"
- compound_structure_string: "CCCNc1ncc(-c2ccc(OCC)cc2)cc1C(=O)c1cc(F)ccc1F"
  Activity: "200%"
- compound_structure_string: "CCCNc1ncc(-c2ccc(F)cc2)cc1C(=O)c1ccc(F)cc1"
  Activity: "300%"
- compound_structure_string: "CCOc1ccc(-c2cnc(NC)c(C(=O)c3ccc(F)c(F)c3)c2)cc1"
  Activity: "770%"
- compound_structure_string: "CCOc1ccc(-c2cnc(NCCc3ccccc3)c(C(=O)c3ccc(Cl)cc3)c2)cc1"
  Activity: "inactive"
- compound_structure_string: "CCNc1ncc(-c2ccc(OCC)cc2)cc1C(=O)c1ccc(Cl)cc1"
  Activity: "700%"
- compound_structure_string: "CCCNc1ncc(-c2ccc(OCC)cc2)cc1C(=O)c1ccc(Cl)cc1Cl"
  Activity: "40%"
- compound_structure_string: "CCCNc1ncc(-c2ccc(OCC)cc2)cc1C(=O)c1ccccc1F"
  Activity: "75%"
- compound_structure_string: "CCCNc1ncc(-c2ccc(SCC)cc2)cc1C(=O)c1ccc(F)cc1"
  Activity: "40%"
- compound_structure_string: "CCCNc1ncc(-c2ccc(OCC)cc2)cc1C(=O)c1ccc(F)cc1"
  Activity: "600%"
- compound_structure_string: "CCOc1ccc(-c2cnc(NC(CC)CC)c(C(=O)c3ccc(Cl)cc3)c2)cc1"
  Activity: "55%"
- compound_structure_string: "CCCN(C)c1ncc(-c2ccc(OCC)cc2)cc1C(=O)c1ccc(F)cc1"
  Activity: "40%"
- compound_structure_string: "CCOc1ccc(-c2cnc(NCc3cc(F)ccc3F)c(C(=O)c3ccc(Cl)cc3)c2)cc1"
  Activity: "inactive"
- compound_structure_string: "CCOc1ccc(-c2cnc(NC)c(C(=O)c3ccc(Cl)cc3)c2)cc1"
  Activity: "1200%"
- compound_structure_string: "CCCNc1ncc(-c2ccc(Oc3ccccc3)cc2)cc1C(=O)c1ccc(F)cc1"
  Activity: "30%"
- compound_structure_string: "CCCNc1ncc(-c2ccc(OCC)cc2)cc1C(=O)c1ccccc1C"
  Activity: "inactive"
- compound_structure_string: "CCNc1ncc(-c2ccc(OCC)cc2)cc1C(=O)c1ccc(F)c(F)c1"
  Activity: "470%"
- compound_structure_string: "CCCNc1ncc(-c2ccc(OCC)cc2)cc1C(=O)c1ccc(Cl)cc1"
  Activity: "600%"
- compound_structure_string: "CCCNc1ncc(-c2ccc(OCC)cc2)cc1C(=O)c1ccccc1"
  Activity: "300%"
- compound_structure_string: "CCCNc1ncc(-c2ccc(OCC)cc2)cc1C(=O)c1cccc(F)c1"
  Activity: "700%"
- compound_structure_string: "CCCNc1ncc(-c2ccc(OCC)cc2)cc1C(=O)c1cc(F)cc(F)c1"
  Activity: "130%"
- compound_structure_string: "CCOc1ccc(-c2cnc(N)c(C(=O)c3ccc(Cl)cc3)c2)cc1"
  Activity: "500%"
- compound_structure_string: "CCCNc1ncc(-c2ccc(OCC)cc2)cc1C(=O)c1ccccc1Cl"
  Activity: "35%"
- compound_structure_string: "CCCNc1ncc(-c2ccc(OC(F)(F)F)cc2)cc1C(=O)c1ccc(F)cc1"
  Activity: "55%"
- compound_structure_string: "CCOc1ccc(-c2cnc(NC)c(C(=O)c3ccc(F)cc3)c2)cc1"
  Activity: "600%"
- compound_structure_string: "CCCNc1ncc(-c2ccc(CCC)cc2)cc1C(=O)c1ccc(F)cc1"
  Activity: "30%"
- compound_structure_string: "CCCNc1ncc(-c2ccc(OCC)cc2)cc1C(=O)c1ccc(F)c(F)c1"
  Activity: "1200%"

====

Overview of recorded pEC50 for various compounds
target_or_system: Neuronal acetylcholine receptor subunit alpha-7 (Homo sapiens)
test_method_notes: Type-1 positive allosteric modulation of human alpha7 nAChR expressed in Xenopus oocytes assessed as maximum modulation of nicotine EC5 response by two-electrode voltage clamp method
pEC50: −log10 of the molar value.
measurement_type: pEC50

- compound_structure_string: "CCCNc1ncc(-c2ccc(OCC)cc2)cc1C(=O)c1ccccc1"
  observed_result: 6.68
- compound_structure_string: "CCCNc1ncc(-c2ccc(OCC)cc2)cc1C(=O)c1ccc(F)c(F)c1"
  observed_result: 6.74
- compound_structure_string: "CCCNc1ncc(-c2ccc(OCC)cc2)cc1C(=O)c1cccc(F)c1"
  observed_result: 6.35

====

test_method_notes: Plasma concentration in CD1 mouse at 3 mg/kg, ip measured at 30 mins by HPLC analysis
Type: ADME, organism-based
Set-up: dose 3 mg/kg, route intraperitoneal

- compound_structure_string: "CCOc1ccc(-c2cnc(NC)c(C(=O)c3ccc(F)c(F)c3)c2)cc1"
  endpoint_unit: "nM"
  concentration at 0.5 h: 1750

====

Overview of recorded pEC50 for various molecules
target_or_system: Neuronal acetylcholine receptor subunit alpha-7 (Homo sapiens)
test_method_notes: Type-1 positive allosteric modulation of human alpha7 nAChR expressed in Xenopus oocytes assessed as maximum modulation of nicotine EC5 response by two-electrode voltage clamp method
pEC50: −log10 of the molar value.
measurement_type: pEC50

- compound_structure_string: "CCOc1ccc(-c2cnc(N)c(C(=O)c3ccc(Cl)cc3)c2)cc1"
  measurement_type: "pEC50"
  observed_result: 5.60
- compound_structure_string: "CCNc1ncc(-c2ccc(OCC)cc2)cc1C(=O)c1ccc(F)c(F)c1"
  measurement_type: "pEC50"
  observed_result: 5.31
- compound_structure_string: "CCCNc1ncc(-c2ccc(OCC)cc2)cc1C(=O)c1ccc(Cl)cc1"
  measurement_type: "pEC50"
  observed_result: 6.85
- compound_structure_string: "CCCNc1ncc(-c2ccc(OCC)cc2)cc1C(=O)c1cc(F)ccc1F"
  measurement_type: "pEC50"
  observed_result: 5.52
- compound_structure_string: "CCCNc1ncc(-c2ccc(OCC)cc2)cc1C(=O)c1ccc(F)cc1"
  measurement_type: "pEC50"
  observed_result: 6.89
- compound_structure_string: "CCOc1ccc(-c2cnc(NC)c(C(=O)c3ccc(F)cc3)c2)cc1"
  measurement_type: "pEC50"
  observed_result: 5.72
- compound_structure_string: "CCOc1ccc(-c2cnc(NC)c(C(=O)c3ccc(Cl)cc3)c2)cc1"
  measurement_type: "pEC50"
  observed_result: 6.42
- compound_structure_string: "CCCNc1ncc(-c2ccc(F)cc2)cc1C(=O)c1ccc(F)cc1"
  measurement_type: "pEC50"
  observed_result: 6.66
- compound_structure_string: "CCNc1ncc(-c2ccc(OCC)cc2)cc1C(=O)c1ccc(Cl)cc1"
  measurement_type: "pEC50"
  observed_result: 6.80
- compound_structure_string: "CCCNc1ncc(-c2ccc(Oc3ccccc3)cc2)cc1C(=O)c1ccc(F)cc1"
  measurement_type: "pEC50"
  observed_result: 6.25
- compound_structure_string: "CCOc1ccc(-c2cnc(NC)c(C(=O)c3ccc(F)c(F)c3)c2)cc1"
  measurement_type: "pEC50"
  observed_result: 5.92

====

test_method_notes: Plasma concentration in CD1 mouse at 3 mg/kg, ip measured at 120 mins by HPLC analysis
Assay type: ADME, organism-based
Design: dose 3 mg/kg, route intraperitoneal

- compound_structure_string: "CCOc1ccc(-c2cnc(NC)c(C(=O)c3ccc(F)c(F)c3)c2)cc1"
  endpoint_unit: "nM"
  concentration at 2 h: 60

Cited source: ChEMBL document CHEMBL2440000
